Tested on: barnyardgrass (Ec)
experiment notes: Test Example 1: herbicidal effects by paddy field soil treatment;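 further: grade of growth control; 5 = at least 90%; 4 = 70 to 90%; 3 = 50 to 70%; 2 = 30 to 50%; 1 = 10 to 30%; 0 = under 10%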
Format: in vivo
assay context: 100 g of the active ingredient per 10 ares, 21st day after the application, index 0-5 of Table 47
Could you please report measured Herbicidal effects Ec for the items listed next?
// no unit string in output, number only

Query :: So what Herbicidal effects Ec did COCCOCOc1cc(-c2ccc(C(F)(F)F)n(C)c2=O)c(F)cc1Cl get with barnyardgrass (Ec)?
Result :: 5

Query :: So what Herbicidal effects Ec did CCCCOC(=O)COc1cc(-c2ccc(C(F)(F)F)n(C)c2=O)c(F)cc1Cl get with barnyardgrass (Ec)?
Result :: 5

Query :: So what Herbicidal effects Ec did Cn1c(C(F)(F)F)ccc(-c2cc(Cl)c(Cl)cc2Cl)c1=O get with barnyardgrass (Ec)?
Result :: 5

Query :: So what Herbicidal effects Ec did CCOC(=O)CN1C(=O)COc2cc(F)c(-c3ccc(C(F)(F)F)n(C)c3=O)cc21 get with barnyardgrass (Ec)?
Result :: 5

Query :: So what Herbicidal effects Ec did CCCOCc1cc2c(-c3ccc(C(F)(F)F)n(C)c3=O)c(F)cc(Cl)c2o1 get with barnyardgrass (Ec)?
Result :: 5

Query :: So what Herbicidal effects Ec did Cn1c(C(F)(F)F)ccc(-c2cc(C=NO)c(Cl)cc2F)c1=O get with barnyardgrass (Ec)?
Result :: 5

Query :: So what Herbicidal effects Ec did COc1cc(-c2ccc(C(F)(F)F)n(N)c2=O)c(F)cc1Cl get with barnyardgrass (Ec)?
Result :: 5

Query :: So what Herbicidal effects Ec did CNC(=O)COc1cc(-c2ccc(C(F)(F)F)n(C)c2=O)c(F)cc1Cl get with barnyardgrass (Ec)?
Result :: 5

Query :: So what Herbicidal effects Ec did COCCOc1cc(-c2ccc(C(F)(F)F)n(C)c2=O)c(F)cc1Cl get with barnyardgrass (Ec)?
Result :: 5

----------
System: corn (Ze)
experiment notes: Test Example 7: crop plant selectivity by upland field soil treatment (corn), phytotoxicity
Format: in vivo
Parameters: scale not given here
assay context: dose 6.3 g ai/10a, 21st day after application
reported property: Phytotoxicity Ze
// no unit string in output, number only

Query :: Would you kindly share the measured Phytotoxicity Ze for CCOc1cc(-c2ccc(C(F)(F)F)n(C)c2=O)c(F)cc1Cl ?
Result :: 1

Query :: Would you kindly share the measured Phytotoxicity Ze for C#CCn1c(=O)sc2cc(F)c(-c3ccc(C(F)(F)F)n(C)c3=O)cc21 ?
Result :: 2

Query :: Would you kindly share the measured Phytotoxicity Ze for Cn1c(C(F)(F)F)ccc(-c2cc(Br)c(Cl)cc2F)c1=O ?
Result :: 2

Query :: Would you kindly share the measured Phytotoxicity Ze for COc1cc(Cl)cc(F)c1-c1ccc(C(F)(F)F)n(C)c1=O ?
Result :: 1

Query :: Would you kindly share the measured Phytotoxicity Ze for Cn1c(C(F)(F)F)ccc(-c2cc(Oc3ncccn3)c(Cl)cc2Cl)c1=O ?
Result :: 1

Query :: Would you kindly share the measured Phytotoxicity Ze for CCc1cc2c(Cl)cc(F)c(-c3ccc(C(F)(F)F)n(C)c3=O)c2o1 ?
Result :: 0

Query :: Would you kindly share the measured Phytotoxicity Ze for CCON=Cc1cc(-c2ccc(C(F)(F)F)n(C)c2=O)c(F)cc1Cl ?
Result :: 1

----------
System: wheat (Tr)
experiment notes: Test Example 9: crop plant selectivity by upland field foliage treatment (wheat), phytotoxicity;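 further: grade of crop injury; 5 = at least 90%; 4 = 70 to 90%; 3 = 50 to 70%; 2 = 30 to 50%; 1 = 10 to 30%; 0 = under 10%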
assay context: dose 1.6 g ai/10a, 14th day after treatment
Could you please report measured Phytotoxicity Tr for the items listed next?
// no unit string in output, number only

Query :: So what Phytotoxicity Tr did C=CCOc1cc(-c2ccc(C(F)(F)F)n(C)c2=O)c(F)cc1Cl get with wheat (Tr)?
Result :: 2

Query :: So what Phytotoxicity Tr did Cn1c(C(F)(F)F)ccc(-c2cc(OCC#N)c(Cl)cc2F)c1=O get with wheat (Tr)?
Result :: 2

Query :: So what Phytotoxicity Tr did CCC(Br)c1cc2c(-c3ccc(C(F)(F)F)n(C)c3=O)c(F)cc(Cl)c2o1 (stereo not drawn) get with wheat (Tr)?
Result :: 2

Query :: So what Phytotoxicity Tr did COCSc1cc(-c2ccc(C(F)(F)F)n(C)c2=O)c(F)cc1Cl get with wheat (Tr)?
Result :: 2

Query :: So what Phytotoxicity Tr did C#CCSc1cc(-c2ccc(C(F)(F)F)n(C)c2=O)c(Cl)cc1Cl get with wheat (Tr)?
Result :: 1

Query :: So what Phytotoxicity Tr did Cn1c(C(F)(F)F)ccc(-c2cc(COC3CCCC3)c(Cl)cc2F)c1=O get with wheat (Tr)?
Result :: 2

Query :: So what Phytotoxicity Tr did CCON=Cc1cc(-c2ccc(C(F)(F)F)n(C)c2=O)c(F)cc1Cl get with wheat (Tr)?
Result :: 2

Query :: So what Phytotoxicity Tr did CC(C#N)Oc1cc(-c2ccc(C(F)(F)F)n(C)c2=O)c(F)cc1Cl (stereo not drawn) get with wheat (Tr)?
Result :: 1

Query :: So what Phytotoxicity Tr did CCCC(=O)c1cc(-c2ccc(C(F)(F)F)n(C)c2=O)c(F)cc1Cl get with wheat (Tr)?
Result :: 1

Query :: So what Phytotoxicity Tr did C#CCOc1cc(-c2ccc(C(F)(F)F)n(C)c2=O)c(Cl)cc1Cl get with wheat (Tr)?
Result :: 2

Query :: So what Phytotoxicity Tr did Cn1c(C(F)(F)F)ccc(-c2c(F)cc(Cl)c3occc23)c1=O get with wheat (Tr)?
Result :: 2

Query :: So what Phytotoxicity Tr did COCSc1cc(-c2ccc(C(F)(F)F)n(C)c2=O)c(Cl)cc1Cl get with wheat (Tr)?
Result :: 2

Query :: So what Phytotoxicity Tr did Cn1c(C(F)(F)F)ccc(-c2cc3c(cc2F)sc(=O)n3C)c1=O get with wheat (Tr)?
Result :: 2

Query :: So what Phytotoxicity Tr did COCN1C(=O)COc2cc(F)c(-c3ccc(C(F)(F)F)n(C)c3=O)cc21 get with wheat (Tr)?
Result :: 1

Query :: So what Phytotoxicity Tr did C#CCNc1cc(-c2ccc(C(F)(F)F)n(C)c2=O)c(F)cc1Cl get with wheat (Tr)?
Result :: 2

Query :: So what Phytotoxicity Tr did Cn1c(C(F)(F)F)ccc(-c2cc(C#N)c(Cl)cc2F)c1=O get with wheat (Tr)?
Result :: 2

Query :: So what Phytotoxicity Tr did Cc1cc2c(-c3ccc(C(F)(F)F)n(C)c3=O)c(F)cc(Cl)c2o1 get with wheat (Tr)?
Result :: 2

Query :: So what Phytotoxicity Tr did C#CCN1C(=O)COc2cc(F)c(-c3cn(C)c(C(F)(F)F)cc3=O)cc21 get with wheat (Tr)?
Result :: 2

Query :: So what Phytotoxicity Tr did CCCC(Sc1cc(-c2ccc(C(F)(F)F)n(C)c2=O)c(F)cc1Cl)C(=O)OCC (stereo not drawn) get with wheat (Tr)?
Result :: 2

Query :: So what Phytotoxicity Tr did CCCCCOC(=O)COc1cc(-c2ccc(C(F)(F)F)n(C)c2=O)c(F)cc1Cl get with wheat (Tr)?
Result :: 2

Query :: So what Phytotoxicity Tr did Cn1c(C(F)(F)F)ccc(-c2cc(OCCCF)c(Cl)cc2F)c1=O get with wheat (Tr)?
Result :: 2

Query :: So what Phytotoxicity Tr did CC(C)C(=O)c1cc(-c2ccc(C(F)(F)F)n(C)c2=O)c(F)cc1Cl get with wheat (Tr)?
Result :: 2

Query :: So what Phytotoxicity Tr did COc1cc(-c2ccc(C(F)(F)F)n(N)c2=O)c(F)cc1Cl get with wheat (Tr)?
Result :: 2

Query :: So what Phytotoxicity Tr did CCc1cc2c(-c3ccc(C(F)(F)F)n(C)c3=O)c(F)cc(Cl)c2o1 get with wheat (Tr)?
Result :: 2

Query :: So what Phytotoxicity Tr did Cn1c(C(F)(F)F)ccc(-c2cc(OC3CCOC3)c(Cl)cc2F)c1=O (stereo not drawn) get with wheat (Tr)?
Result :: 2

Query :: So what Phytotoxicity Tr did C#CC(C)Oc1cc(-c2ccc(C(F)(F)F)n(C)c2=O)c(Cl)cc1Cl (stereo not drawn) get with wheat (Tr)?
Result :: 2

Query :: So what Phytotoxicity Tr did C=CCn1c(=O)sc2cc(F)c(-c3ccc(C(F)(F)F)n(C)c3=O)cc21 get with wheat (Tr)?
Result :: 1

Query :: So what Phytotoxicity Tr did Cn1c(C(F)(F)F)ccc(-c2cc(C(=O)OC3CCCC3)c(Cl)cc2F)c1=O get with wheat (Tr)?
Result :: 2

Query :: So what Phytotoxicity Tr did Cn1c(C(F)(F)F)ccc(-c2c(F)cc(Cl)c3oc(CO)cc23)c1=O get with wheat (Tr)?
Result :: 2

Query :: So what Phytotoxicity Tr did CCOCOc1cc(-c2ccc(C(F)(F)F)n(C)c2=O)c(F)cc1Cl get with wheat (Tr)?
Result :: 2

Query :: So what Phytotoxicity Tr did Cn1c(C(F)(F)F)ccc(-c2cc(C(=O)OCCBr)c(Cl)cc2F)c1=O get with wheat (Tr)?
Result :: 2

Query :: So what Phytotoxicity Tr did CC(Br)c1cc2c(-c3ccc(C(F)(F)F)n(C)c3=O)c(F)cc(Cl)c2o1 (stereo not drawn) get with wheat (Tr)?
Result :: 2

Query :: So what Phytotoxicity Tr did CCCOC(=O)c1cc(-c2ccc(C(F)(F)F)n(C)c2=O)c(F)cc1Cl get with wheat (Tr)?
Result :: 2

Query :: So what Phytotoxicity Tr did Cn1c(C(F)(F)F)ccc(-c2cc(OCCCl)c(Cl)cc2F)c1=O get with wheat (Tr)?
Result :: 2

Query :: So what Phytotoxicity Tr did C#CC(C)Oc1cc(Cl)cc(F)c1-c1ccc(C(F)(F)F)n(C)c1=O (stereo not drawn) get with wheat (Tr)?
Result :: 1

Query :: So what Phytotoxicity Tr did CCn1c(=O)sc2cc(F)c(-c3ccc(C(F)(F)F)n(C)c3=O)cc21 get with wheat (Tr)?
Result :: 2

The measured values listed here are drawn from patent US6472348B1.
